study.target: ERα (Homo sapiens, UniProt P03372)
Sequence (P03372 whole entry): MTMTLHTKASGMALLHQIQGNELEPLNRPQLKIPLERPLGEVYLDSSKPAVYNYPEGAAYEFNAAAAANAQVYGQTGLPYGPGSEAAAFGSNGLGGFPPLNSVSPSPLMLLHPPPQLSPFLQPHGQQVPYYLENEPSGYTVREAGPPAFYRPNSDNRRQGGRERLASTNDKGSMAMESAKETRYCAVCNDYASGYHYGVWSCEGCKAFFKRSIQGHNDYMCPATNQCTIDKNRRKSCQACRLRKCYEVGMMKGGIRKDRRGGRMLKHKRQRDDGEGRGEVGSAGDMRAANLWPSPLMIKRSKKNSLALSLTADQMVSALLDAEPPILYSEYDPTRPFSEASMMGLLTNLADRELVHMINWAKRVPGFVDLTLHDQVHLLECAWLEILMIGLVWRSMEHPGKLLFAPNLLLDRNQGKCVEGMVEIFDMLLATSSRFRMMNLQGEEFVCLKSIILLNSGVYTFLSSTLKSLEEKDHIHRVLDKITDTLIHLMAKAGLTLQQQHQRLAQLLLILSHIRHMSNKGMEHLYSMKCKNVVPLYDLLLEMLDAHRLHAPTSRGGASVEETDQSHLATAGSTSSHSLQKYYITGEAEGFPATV
test: Transactivation assay in U2OS cells
Type: cell-based
condition.description: U2OS cells transiently transfected with ERα and luciferase reporter, 24 hours

{"molecule": "C[C@]12CCC3c4ccc5[nH]ncc5c4CCC3C1CC[C@@H]2O (stereo partly shown) [Example 1]", "unit.info": "nM", "EC50": 0.082}

----------
study.target: ERα (Homo sapiens)
test: Induction of alkaline phosphatase in human endometrial Ishikawa cells
Assay type: cell-based
condition.description: 72 hours, read-out: EC50 Alkaline phoshatase induction, Ishikawa cells
Description: Alkaline phosphatase is an estrogen target gene in the normal uterine epithelium as well as in endometrial-derived cancer cells, such as Ishikawa cells. […]. […] OD was measured at 405 nm sing a Polarstar Optima. Dose response curves were generated using and ED50 values were calculated using Sigma plot.

{"compound": "C[C@]12CCC3c4ccc5[nH]ncc5c4CCC3C1CC[C@@H]2O (stereo partly shown)", "EC50 (pM)": 759}

----------
study.target: ERα (Homo sapiens)
test: Transactivation assay in stably transfected MCF-7 cells (MVLN assay)
Format: cell-based
Design: MCF-7 cells endogenously expressing ERα; endogenous in cells; host or cells: MCF-7 stably transfected with vitellogenin-tk-luciferase reporter (MVLN)
condition.description: vitellogenin-tk-luciferase reporter, 24 hours, Table 1, read-out: EC50 ERα transactivation, MVLN assay
parameter.measured: EC50 (nM)

{"compound": "C[C@]12CCC3c4ccc5[nH]ncc5c4CCC3C1CC[C@@H]2O (stereo partly shown)", "study.target": "ERα (Homo sapiens)", "value.reported": 1.42}

The measurements presented in this section are drawn from patent US20110190246A1.
